The compounds listed here are annotated with their HC50 at 1 h.
- EXPERIMENTAL_PROTOCOL: Hemolytic activity in human RBC after 1 hr
- Assay type: ADME, cell-based, Erythrocyte
- TEST_CONDITIONS: red blood cells (RBC)
Answer format: numeric, µM implied, no suffix.

Answered examples (3):
| RECORD_SMILES | HC50 at 1 h (µM) |
| --- | --- |
| CCCCCCCCCCCCCCCC(=O)N(CC(N)=O)C[C@H](CCCCN)NC(=O)CN1C[C@H](Cc2ccccc2)NC(=O)CN(C(=O)CCc2ccccc2)C[C@H](CCCCN)NC(=O)CN(C(=O)CCc2ccccc2)C[C@H](CCCCN)NC(=O)CN(C(=O)CCc2ccccc2)C[C@H](CCCCN)NC(=O)CN(C(=O)CCc2ccccc2)C[C@H](CCCCN)NC(=O)CCC1=O | 130 |
| CCCCCCCCCCCCCCCC(=O)N(CC(N)=O)C[C@H](CCCCN)NC(=O)CN1C[C@H](Cc2ccccc2)NC(=O)CN(C(=O)CCc2ccccc2)C[C@H](CCCCN)NC(=O)CN(C(=O)CCCN)C[C@H](Cc2ccccc2)NC(=O)CN(C(=O)CCc2ccccc2)C[C@H](CCCCN)NC(=O)CCC1=O | 114 |
| CCCCCCCCCCCCCCCC(=O)N(CC(N)=O)C[C@H](CCCCN)NC(=O)CN1C[C@H](Cc2ccccc2)NC(=O)CN(C(=O)CCc2ccccc2)C[C@H](CCCCN)NC(=O)CN(C(=O)CCc2ccccc2)C[C@H](CCCCN)NC(=O)CN(C(=O)CCc2ccccc2)C[C@H](CCCCN)NC(=O)CCC1=O | 160 |

-- ask Could you share which HC50 at 1 h value was measured for CCCCCCCCCCCCCCCC(=O)N(CC(N)=O)C[C@H](CCCCN)NC(=O)CN1C[C@H](Cc2ccccc2)NC(=O)CN(C(=O)CCCN)C[C@H](Cc2ccccc2)NC(=O)CN(C(=O)CCCN)C[C@H](Cc2ccccc2)NC(=O)CN(C(=O)CCCN)C[C@H](Cc2ccccc2)NC(=O)CCC1=O ?
-- reply 65
